Provenance of the data: patent US20260000597A1

- Target Of Assay: AchR (Homo sapiens, UniProt P02708)
- Sequence (P02708 21-457): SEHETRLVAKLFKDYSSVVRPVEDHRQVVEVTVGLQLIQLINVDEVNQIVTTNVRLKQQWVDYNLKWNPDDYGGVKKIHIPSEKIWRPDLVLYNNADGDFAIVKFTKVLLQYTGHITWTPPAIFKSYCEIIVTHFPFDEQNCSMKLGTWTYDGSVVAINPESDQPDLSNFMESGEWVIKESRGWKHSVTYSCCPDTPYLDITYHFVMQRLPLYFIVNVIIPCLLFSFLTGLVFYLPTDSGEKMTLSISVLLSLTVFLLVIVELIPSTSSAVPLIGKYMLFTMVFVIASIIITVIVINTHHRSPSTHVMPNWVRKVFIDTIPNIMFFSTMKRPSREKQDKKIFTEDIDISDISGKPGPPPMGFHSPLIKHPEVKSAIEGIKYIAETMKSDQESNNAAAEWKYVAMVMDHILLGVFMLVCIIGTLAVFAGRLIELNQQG
- Protocol Text: ELISA of screened peptide phages on AchR versus streptavidin (OD450)
- Type: binding
- Test Settings: ELISA of selected 11-mer (L2) peptide phages on AchR, absorbance at 450 nm; Spep-2 positive control
No end group written: not given here.
Please respond with reported OD for every item in the list.
Format: numeric value only, no unit, no commentary.

Request: Look up OD for this substance: WTWKGRKSLLR [Spep-2, WTWKGRKSLLR]
Result: 0.303

Request: Ok, now L2-147 (TWCKHKKLDMK; AchR binding peptide) [Peptide L2-147]
Result: 0.641

Request: L2-199 (EICKNRKPANR; AchR binding peptide) [Peptide L2-199] ?
Result: 0.716

Request: Proceed to L2-105 (IEMKPRKFGVK; AchR binding peptide) [Peptide L2-105]
Result: 0.488

Request: Same again, this time with L2-168 (GGAKNKKVVSR; AchR binding peptide) [Peptide L2-168]
Result: 0.725

Request: Please answer likewise for L2-62 (NLHKPKRDLPK; AchR binding peptide) [Peptide L2-62]
Result: 0.736

Request: Also L2-171 (YGTRPKKYVSK; AchR binding peptide) [Peptide L2-171] ?
Result: 0.689

Request: // query: L2-75 (YILRDKKVPLK; AchR binding peptide) [Peptide L2-75]
Result: 0.539

Request: Record: L2-70 (QLLKMRKALSR; AchR binding peptide) [Peptide L2-70]
Result: 0.67

* * *

- Target Of Assay: AchR (Homo sapiens, UniProt P02708)
- Protocol Text: ELISA of screened peptide phages on AchR versus streptavidin (OD450)
- Type: binding
- Test Settings: ELISA of selected 14-mer (L3) peptide phages on AchR, absorbance at 450 nm; Spep-2 positive control
Reported Endpoint: OD
# answer = number (no unit)

Request: What reported OD corresponds to L3-17 (VGPKFRKNHRRQNR; AchR binding peptide) [Peptide L3-17] on AchR (Homo sapiens, UniProt P02708)?
Result: 0.812

Request: L3-185 (VLPKERRWLTRFLI; AchR binding peptide) [Peptide L3-185]
Result: 0.794

Request: Try this substance next: L3-41 (GWLKAKRFPSRPPT; AchR binding peptide) [Peptide L3-41]
Result: 0.81

Request: Please answer likewise for L3-20 (CCFKLKKAYNKGPF; AchR binding peptide) [Peptide L3-20]
Result: 0.755

Request: Param item: L3-21 (NPMKLRKAETKHNV; AchR binding peptide) [Peptide L3-21]
Result: 0.843

Request: Now consider L3-99 (PCWKFRRAQMKWGI; AchR binding peptide) [Peptide L3-99] .
Result: 0.692

Request: # iterate: L3-113 (CLFKYRKSCVRLCG; AchR binding peptide) [Peptide L3-113]
Result: 0.766

Request: Next up: L3-169 (FHMKSKKDGDKFVM; AchR binding peptide) [Peptide L3-169]
Result: 0.783

Request: Then L3-44 (PPFRLRKPLWRPQR; AchR binding peptide) [Peptide L3-44] ?
Result: 0.719

Request: Likewise for L3-137 (QVVRLRRGKNRGTV; AchR binding peptide) [Peptide L3-137] ?
Result: 0.565

Request: // same read-out, input: L3-43 (FTHKNRRDSLRVWM; AchR binding peptide) [Peptide L3-43]
Result: 0.93

Request: And what about the substance L3-66 (YISKSKKTAGRWFW; AchR binding peptide) [Peptide L3-66] ?
Result: 0.738

Request: Same thing, different substance: L3-165 (YLVKLRRFWAKIDM; AchR binding peptide) [Peptide L3-165]
Result: 0.771

Request: Also L3-85 (QLVKLRKLARRVSY; AchR binding peptide) [Peptide L3-85] , if possible.
Result: 0.735

Request: Consider next the substance L3-175 (TCHKTKRSIMRATS; AchR binding peptide) [Peptide L3-175] in the same way.
Result: 0.768

Request: Try L3-130 (EHSKHRKDLFRMVG; AchR binding peptide) [Peptide L3-130] next.
Result: 0.531

Request: Now this one: L3-193 (AAYRARKIVEKSGW; AchR binding peptide) [Peptide L3-193]
Result: 0.755

Request: Here is the next substance: L3-176 (MIGKCRKCGTKCYA; AchR binding peptide) [Peptide L3-176]
Result: 0.739

Request: Same again, this time with L3-6 (EFVKLRKARLRGPQ; AchR binding peptide) [Peptide L3-6]
Result: 0.77

Request: Then what about the substance L3-92 (NLERTKKHGLKGYM; AchR binding peptide) [Peptide L3-92] ?
Result: 0.657

Request: Now try L3-87 (FLEKCRKFIIRVST; AchR binding peptide) [Peptide L3-87] .
Result: 0.743

Request: Could you do the same for L3-199 (PQTRYRKYFYRPQM; AchR binding peptide) [Peptide L3-199] , please?
Result: 0.781

Request: Same read-out for L3-196 (IEMRYRRDCSRFVN; AchR binding peptide) [Peptide L3-196] ?
Result: 0.746

Request: And L3-181 (GPCRPRRHSIRLLW; AchR binding peptide) [Peptide L3-181] ?
Result: 0.624

Request: How about this substance: L3-173 (QLGKQKREATREYV; AchR binding peptide) [Peptide L3-173]
Result: 0.775

Request: Next substance up: L3-51 (NHHKTKRCSVRFNI; AchR binding peptide) [Peptide L3-51]
Result: 0.754

Request: // next record L3-188 (DGIRDKKCCWRDLI; AchR binding peptide) [Peptide L3-188]
Result: 0.738

Request: Then what about the substance L3-180 (QGIRPRKHLQRMPN; AchR binding peptide) [Peptide L3-180] ?
Result: 0.7

Request: Another: L3-76 (QMGKFKKISLKNTF; AchR binding peptide) [Peptide L3-76]
Result: 0.701

Request: Also L3-95 (SISRLRKAHQKFIP; AchR binding peptide) [Peptide L3-95] ?
Result: 0.657

Request: Input L3-64 (HEIKQKKYFHRGHD; AchR binding peptide) [Peptide L3-64]
Result: 0.799

Request: Repeat with L3-67 (VTWKFRKAEKRWGY; AchR binding peptide) [Peptide L3-67]
Result: 0.786

Request: Next: L3-59 (HVYKNRRVWGKGWP; AchR binding peptide) [Peptide L3-59]
Result: 0.659

Request: Also L3-26 (VPMKYRRCGNRQSN; AchR binding peptide) [Peptide L3-26] ?
Result: 0.802

Request: Also, L3-13 (YCTRIRREGMKGSE; AchR binding peptide) [Peptide L3-13] please.
Result: 0.862
